molecular target: furin, P09958; assay: furin cleavage Z-score vs untreated control; higher = more cleavage, active = 3.5 or more, inactive = 1 or less, 8 variable residues between constant flanks; conditions: 30 min;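 note: purified furin at 1:10 enzyme:substrate in 50 mM HEPES pH 7.5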
Sequence (P09958 whole entry): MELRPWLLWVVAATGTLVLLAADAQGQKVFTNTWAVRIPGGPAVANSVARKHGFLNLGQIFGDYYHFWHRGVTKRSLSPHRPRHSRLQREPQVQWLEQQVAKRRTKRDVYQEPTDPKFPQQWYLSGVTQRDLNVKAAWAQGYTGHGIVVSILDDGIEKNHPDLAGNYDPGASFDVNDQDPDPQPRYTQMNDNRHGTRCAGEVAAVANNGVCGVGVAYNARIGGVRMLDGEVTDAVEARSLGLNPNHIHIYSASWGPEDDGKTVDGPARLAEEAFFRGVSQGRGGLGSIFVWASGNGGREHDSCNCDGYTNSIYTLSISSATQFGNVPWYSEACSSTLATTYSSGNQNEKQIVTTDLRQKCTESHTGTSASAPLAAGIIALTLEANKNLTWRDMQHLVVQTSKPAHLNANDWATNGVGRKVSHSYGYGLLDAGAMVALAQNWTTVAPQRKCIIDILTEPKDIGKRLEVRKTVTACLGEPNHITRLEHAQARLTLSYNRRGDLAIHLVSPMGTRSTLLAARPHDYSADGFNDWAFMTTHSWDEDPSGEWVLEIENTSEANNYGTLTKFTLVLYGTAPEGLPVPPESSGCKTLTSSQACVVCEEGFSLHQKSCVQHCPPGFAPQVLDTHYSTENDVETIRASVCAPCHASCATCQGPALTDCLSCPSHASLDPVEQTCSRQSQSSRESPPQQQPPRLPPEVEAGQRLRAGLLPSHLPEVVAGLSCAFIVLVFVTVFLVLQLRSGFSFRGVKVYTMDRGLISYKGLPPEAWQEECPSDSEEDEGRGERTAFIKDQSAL
The list shows a part of the results. No count for the full screen is at hand.
Decide by furin cleavage Z-score: equal to or exceeding 0.1 means rule met, less means rule not met.

Use the examples below as a reference point.
Chain Sequence: CARHARNVDRAGNASASA [FS-1953]
Group: rule met

Chain Sequence: CARPAREVDRAGNASASA [FS-2356]
Group: rule met

Chain Sequence: CASIFLLALLAGNASASA [HC248]
Group: rule not met

Chain Sequence: CARHARQASEAGNASASA [FS-3155]
Group: rule met

Chain Sequence: CAMKYEIASEAGNASASA [NG5]
Group: rule met

Chain Sequence: CAHEMEECSQAGNASASA [HC1795]
Group: rule not met

Consider the record given below.
Could you tell me if the measured furin cleavage Z-score of CARHARFGKKAGNASASA [FS-2210] reaches 0.1 or more? rule met
